All values here come from the supplement of paper PMC10567573.

B1: SEC22B (parent)
chain: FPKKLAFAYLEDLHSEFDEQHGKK

Variants of: B1
Assay: protein stability index of a GFP-peptide fusion (GPS, HEK-293T) (PSI 1-6); higher = more stable;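 further: lentivirally expressed fusions sorted by FACS into six bins by GFP to DsRed ratio, PSI derived from sequencing read proportions per bin multiplied by bin number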
Details: c terminus: a fixed tail appended
Mark -1 for protein stability index values under 2, and 1 for everything at or above.

variant-label | group
F1I | 1
A8G | 1
E19D | 1
E19W | 1
D18I | -1
A6W | 1

Request: Reported protein stability index at or above 2? "L13I"
Result: 1

Request: Reported protein stability index at or above 2? "A6V"
Result: 1

Request: Reported protein stability index at or above 2? "E11Q"
Result: -1

Request: Reported protein stability index at or above 2? "E19P"
Result: 1

Request: Reported protein stability index at or above 2? "S15P"
Result: 1
